- targetDesc: SK3/KCa2.3 channel (Homo sapiens, UniProt Q9UGI6)
- experiment: Whole-cell patch clamp on HEK293 cells expressing SK3
- Format: cell-based
- Parameters: expressed in transfected cells; host or cells: HEK293, lentiviral transduction, clonal selection
- conditionParameters: HEK 293 LvSK3 cells; 10 μM stated for JPH1701
Here the recorded Inhibition of I at 0 mV is given for each entry.
The answer is to be given in %; state only the numeric part.

The cases that follow already have their Inhibition of I at 0 mV on record.
{"compound": "CCCCCCCCCCCCCCCCOC[C@H](CO[C@@H]1O[C@H](COC(C)=O)[C@@H](O[C@H]2O[C@H](COC(C)=O)[C@@H](OC(C)=O)[C@H](OC(C)=O)[C@H]2OC(C)=O)[C@H](OC(C)=O)[C@H]1OC(C)=O)OC", "unitsText": "%", "Inhibition of I at 0 mV": 44.7}
{"compound": "CCCCCCCCCCCCCCCCOC[C@H](CO[C@@H]1O[C@H](CO[C@H]2O[C@H](COC(C)=O)[C@H](OC(C)=O)[C@H](OC(C)=O)[C@H]2OC(C)=O)[C@@H](OC(C)=O)[C@H](OC(C)=O)[C@H]1OC(C)=O)OC", "unitsText": "%", "Inhibition of I at 0 mV": 44.0}
{"compound": "CCCCCCCCCCCCCCCCOCC(COP(=O)(O)OC1OC(COC(C)=O)C(OC2OC(COC(C)=O)C(OC(C)=O)C(OC(C)=O)C2OC(C)=O)C(OC(C)=O)C1OC(C)=O)OC.CCN(CC)CC (mixture of isomers)", "unitsText": "%", "Inhibition of I at 0 mV": 42.5}

input: Given the compound CCCCCCCCCCCCCCCCOC[C@H](CO[C@@H]1O[C@H](COC(C)=O)[C@@H](O[C@@H]2O[C@H](COC(C)=O)[C@H](OC(C)=O)[C@H](OC(C)=O)[C@H]2OC(C)=O)[C@H](OC(C)=O)[C@H]1OC(C)=O)OC , what is its reported Inhibition of I at 0 mV?
output: 22.8

---

- experiment: Cytotoxicity / cell viability (MTT, tetrazolium salt reduction)
- conditionParameters: human, MDA-MB-435s cells (metastatic cancer cell line)
measure: IC50 at 24 h

input: Query: IC50 at 24 h; subject: CCCCCCCCCCCCCCCCCCOCC(COP(=O)([O-])OCC[N+](C)(C)C)OC (stereo not shown) [Edelfosine, reference compound]
output: < 5 µM
